- Tested target: DLL3 (Homo sapiens)
- Measurement description: SPR KD, biotinylated human DLL3 on streptavidin chip (Table 8)
- Set-up: biotin (biotinylated)
- Protocol conditions: biotinylated human DLL3 on streptavidin sensor chip, 25° C., 1:1 binding model; read-out: SPR KD
pKd: −log10 of the molar value. Where a SMILES comes first, the peptide text is derived from it. Bridges are numbered along the chain shown (N, C = ends). [ ]: non-standard residue; d: D form. The star is where a group is joined. DOTA = O=C(O)CN1CCN(CC(=O)O)CCN(CC(=O)*)CCN(CC(=O)O)CC1; 2Nal = N[C@@H](Cc1ccc2ccccc2c1)C(=O)O; NMeNle = CCCC[C@H](NC)C(=O)O
Measurement label: pKd

{"Compound": "CCCC[C@@H](C(=O)N[C@H]1CSSC[C@@H](C(=O)N[C@@H](Cc2c[nH]c3ccccc23)C(=O)N2CCC[C@H]2C(N)=O)NC(=O)[C@H](CC(=O)O)NC(=O)[C@H](CCCCNC(=O)CN2CCN(CC(=O)O)CCN(CC(=O)O)CCN(CC(=O)O)CC2)NC(=O)[C@H](Cc2ccc3ccccc3c2)NC(=O)[C@H](CC(N)=O)NC(=O)[C@H](CC(N)=O)NC1=O)N(C)C(=O)[C@@H](NC(=O)[C@H](Cc1c[nH]c2ccccc12)NC(C)=O)[C@@H](C)O [compound 320] (Ac-WT[NMeNle]CNN[2Nal]K(DOTA)DCWP-NH2; disulfide 4-10)", "Assay value": "> 9.00"}

This collection of values is drawn from patent US20250049970A1.
